- Test system: 922993-354-T-J3-PDC complex spheroids, viability, % test/control;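 further: spheroids exposed to the agents for 7 days before readout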
- test-method-notes: Anticancer human tumor 922993-354-T-J3-PDC patient-derived endometrial carcinoma cell line growth inhibition [CLK]
- condition-set: second compound 10 µM; first compound 10 µM; active compounds read low
A collection of compounds and their measured viability, T/C
Please respond with the number in % and leave the unit unwritten.

// below: answered compounds
Nc1ccn(C2OC(CO)C(O)C2(F)F)c(=O)n1 (configuration not stated) + CNC(=O)c1ccc(Nc2nc(OC3CCCC3)c3c(-c4ccc5nc(C)oc5c4)c[nH]c3n2)c(OC)c1    11.4
COc1ccc([C@@H](O)c2cc(-c3ncnc4cc(N5CCOCC5)ccc34)c(F)cc2Cl)nn1 + CNC(=O)c1ccc(Nc2nc(OC3CCCC3)c3c(-c4ccc5nc(C)oc5c4)c[nH]c3n2)c(OC)c1    37.1
COc1cccc2c1C(=O)c1c(O)c3c(c(O)c1C2=O)CC(O)(C(=O)CO)CC3OC1CC(N)C(O)C(C)O1 (configuration not stated) + CN1CCN(c2cc(C(=O)Nc3cc4cc(-c5cnn(C)c5)ccc4cn3)ccn2)CC1    1.56

# input I would be grateful if you could share the reported viability, T/C for CCCS(=O)(=O)Nc1ccc(F)c(C(=O)c2c[nH]c3ncc(-c4ccc(Cl)cc4)cc23)c1F + CNC(=O)c1ccc(Nc2nc(OC3CCCC3)c3c(-c4ccc5nc(C)oc5c4)c[nH]c3n2)c(OC)c1 .
# output 23.1

# input Record request: viability, T/C value, item COc1cccc2c1C(=O)c1c(O)c3c(c(O)c1C2=O)CC(O)(C(=O)CO)CC3OC1CC(N)C(O)C(C)O1 (configuration not stated) + CNC(=O)c1ccc(Nc2nc(OC3CCCC3)c3c(-c4ccc5nc(C)oc5c4)c[nH]c3n2)c(OC)c1
# output 1.92

# input Which viability, T/C is listed for C=CC(=O)N1CCN(c2nc(=O)n(-c3c(C)ccnc3C(C)C)c3nc(-c4c(O)cccc4F)c(F)cc23)C(C)C1 (configuration not stated) + CNC(=O)c1ccc(Nc2nc(OC3CCCC3)c3c(-c4ccc5nc(C)oc5c4)c[nH]c3n2)c(OC)c1 ?
# output 37.3

# input # query: viability, T/C of entry COC1C=CCC(C)C(C)S(=O)(=O)NC(=O)c2ccc3c(c2)N(CC2CCC21)CC1(CCCc2cc(Cl)ccc21)CO3 (configuration not stated) + CNC(=O)c1ccc(Nc2nc(OC3CCCC3)c3c(-c4ccc5nc(C)oc5c4)c[nH]c3n2)c(OC)c1
# output 10.7

# input I am curious: what viability, T/C value has been reported for CC(CO)NC(=O)c1cc(-c2ccc(Cl)cc2)nn(-c2cnn(C)c2)c1=O (configuration not stated) + CNC(=O)c1ccc(Nc2nc(OC3CCCC3)c3c(-c4ccc5nc(C)oc5c4)c[nH]c3n2)c(OC)c1 ?
# output 30.7

# input Entry CC(Nc1ccc2c(c1)OCCn1cc(N3C(=O)OCC3C(F)F)nc1-2)C(N)=O (configuration not stated) + CN1CCN(c2cc(C(=O)Nc3cc4cc(-c5cnn(C)c5)ccc4cn3)ccn2)CC1 : reported viability, T/C = ?
# output 1.25

# input Give its viability, T/C value. Item: CC(=O)O[C@H]1C(=O)[C@@]2(C)[C@H]([C@H](OC(=O)c3ccccc3)[C@]3(O)C[C@H](OC(=O)[C@H](O)[C@@H](NC(=O)c4ccccc4)c4ccccc4)C(C)=C1C3(C)C)[C@]1(OC(C)=O)CO[C@@H]1C[C@@H]2O + CN1CCN(c2cc(C(=O)Nc3cc4cc(-c5cnn(C)c5)ccc4cn3)ccn2)CC1
# output 2.94

# input Query (compound): CC1(C)CCC(CN2CCN(c3ccc(C(=O)NS(=O)(=O)c4ccc(NCC5CCOCC5)c([N+](=O)[O-])c4)c(Oc4cnc5[nH]ccc5c4)c3)CC2)=C(c2ccc(Cl)cc2)C1 + CNC(=O)c1ccc(Nc2nc(OC3CCCC3)c3c(-c4ccc5nc(C)oc5c4)c[nH]c3n2)c(OC)c1 ; field requested: viability, T/C
# output 13.6

# input I am curious: what viability, T/C value has been reported for Nc1ccn(C2OC(CO)C(O)C2(F)F)c(=O)n1 (configuration not stated) + CN1CCN(c2cc(C(=O)Nc3cc4cc(-c5cnn(C)c5)ccc4cn3)ccn2)CC1 ?
# output 1.33
